Molecular target: UniProtKB P03951
Assay: Factor XIa chromogenic substrate (S-2366) inhibition assay
Type: biochemical
Details: substrate S-2366, activity ranges, Table A
attribute_measured: Ki

molecule | experimental_system | result
O=C(O)c1ccc(NC(=O)[C@H]2c3cccc(N4CCC(C(=O)N5CCCC5)CC4)c3CCN2C(=O)/C=C/c2c(-n3cnnn3)ccc(Cl)c2F)cc1 [Example 132] | UniProtKB P03951 | 100 to 500 nM
O=C(Nc1ccc2cn[nH]c2c1)C1c2cccc(N3CCOCC3=O)c2CCN1C(=O)/C=C/c1c(-n2cnnn2)ccc(Cl)c1F (racemic) [Example 47] | UniProtKB P03951 | < 5 nM

// moving on: another record for Ki
Item: CC(C)(C)OC(=O)c1ccc(NC(=O)C2c3cccc(N4CCC(N5CCCC5)CC4)c3CCN2C(=O)/C=C/c2c(-n3cnnn3)ccc(Cl)c2F)cc1 (racemic) [Example 84] | Ki: < 5 nM

----------
Biological target: UniProt:P03951
Test: Factor XIa chromogenic substrate (S-2366) inhibition assay
Assay type: biochemical
Conditions: substrate S-2366, activity ranges, Table A
Where a name gives a salt, the structure may show the parent alone.
attribute_measured: Ki

Observed Ki, UniProt:P03951, O=C(O)c1ccc(NC(=O)C2c3cccc(N4CCNCC4)c3CCN2C(=O)C=Cc2c(-n3cnnn3)ccc(Cl)c2F)cc1 (centres unmarked) [Example 12] : 5 to 10 nM

Ki of O=C(O)c1ccc(NC(=O)C2c3cccc(N4CCC5(CCN(Cc6ccccc6)C5=O)CC4)c3CCN2C(=O)/C=C/c2c(-n3cnnn3)ccc(Cl)c2F)cc1 (racemic) [Example 121] , assay on UniProt:P03951, is < 5 nM

Test item CN1CCN(c2cccc3c2CCN(C(=O)/C=C/c2c(-n4cnnn4)ccc(Cl)c2F)C3C(=O)Nc2ccc(C(=O)O)cc2)CCC1=O (racemic) [Example 264] ; UniProt:P03951; reported Ki was < 5 nM

Record CC(=O)c1ccc(Cl)c(F)c1C=CC(=O)N1CCc2c(cccc2N2CCC(N3CCCC3)CC2)C1C(=O)Nc1ccc(C(=O)OCCn2cncn2)cc1 (centres unmarked) [Example 173] ; system UniProt:P03951; Ki = 5 to 10 nM

Form field, Ki with UniProt:P03951, item COC(=O)N1CCN(c2cccc3c2CCN(C(=O)/C=C/c2c(-n4cnnn4)ccc(Cl)c2F)C3C(=O)Nc2ccc(F)cc2)CC1 (centres unmarked) [Example 25] : 5 to 10 nM

With UniProt:P03951 as the test system, CN(C)C1CCN(c2cccc3c2CCN(C(=O)/C=C/c2c(C(F)(F)F)ccc(Cl)c2F)C3C(=O)Nc2ccc(C(=O)O)cc2)CC1 (racemic) [Example 223] showed Ki of < 5 nM

The compound O=C(Nc1ccc(F)cc1)C1c2cccc(N3CCNCC3)c2CCN1C(=O)/C=C/c1cc(Cl)ccc1-n1cnnn1 (centres unmarked) [Example 2] , when measured on UniProt:P03951, yielded Ki of 100 to 500 nM

I looked up NC1CCN(c2cccc3c2CCN(C(=O)/C=C/c2c(-n4cnnn4)ccc(Cl)c2F)C3C(=O)Nc2ccc(C(=O)O)cc2)CC1 (racemic) [Example 97] and its Ki for UniProt:P03951 was < 5 nM

Given the compound CCOC(=O)c1ccc(NC(=O)C2c3cccc(N4CCC(N5CCCC5)CC4)c3CCN2C(=O)/C=C/c2c(C#N)ccc(Cl)c2F)cc1 (racemic) [Example 165] and test system UniProt:P03951, the measured Ki is 5 to 10 nM

Observed Ki, UniProt:P03951, O=C(O)c1ccc(NC(=O)C2c3cccc(N4CCC(N5CCCCC5=O)CC4)c3CCN2C(=O)/C=C/c2c(-n3cnnn3)ccc(Cl)c2F)cc1 (racemic) [Example 130] : < 5 nM

Lab entry: UniProt:P03951 assay, compound CCOC(=O)c1ccc(NC(=O)C2c3cccc(N4CCC(N5CCCC5)CC4)c3CCN2C(=O)C=Cc2c(-n3cnnn3)ccc(Cl)c2F)cc1 (centres unmarked) [Example 93] , Ki = 5 to 10 nM

Tested on UniProt:P03951: CC(=O)Nc1ccc(NC(=O)c2ccc(NC(=O)C3c4cccc(N5CCNCC5)c4CCN3C(=O)/C=C/c3cc(Cl)c(F)cc3-n3cnnn3)cc2)cc1 (racemic) [Example 70] . Observed Ki: 100 to 500 nM

Record CC1(C)Cc2c(cccc2N2CCNCC2)[C@@H](C(=O)Nc2ccc(C(=O)O)cc2)N1C(=O)/C=C/c1c(-n2cnnn2)ccc(Cl)c1F [Example 194, bis-TFA salt] / UniProt:P03951, Ki recorded as < 5 nM

# lookup: O=C(O)c1ccc(NC(=O)C2c3cccc(N4CCC(N5CCCC5)CC4)c3CCN2C(=O)C=Cc2c(-n3cnnn3)ccc(Cl)c2F)cc1 (centres unmarked) [Example 87] on UniProt:P03951, Ki = < 5 nM

So the reported Ki for CC(=O)c1ccc(Cl)c(F)c1/C=C/C(=O)N1CCc2c(cccc2N2CCS(=O)(=O)CC2)[C@H]1C(=O)Nc1ccc(C(=O)O)cc1 [Example 217] , on UniProt:P03951, turned out to be < 5 nM

Sample NCc1ccc(Cl)cc1/C=C/C(=O)N1CCc2c(cccc2N2CCNCC2)C1C(=O)Nc1ccc(C(=O)O)cc1 (centres unmarked) [Example 32, tri TFA Salt] , system: UniProt:P03951. Its Ki is 100 to 500 nM

Entry O=C(O)c1ccc(NC(=O)C2c3cccc(N4CCC(N5CCCC5)CC4)c3CCN2C(=O)/C=C/c2cc(Cl)ccc2C(F)F)cc1 (racemic) [Example 158] , UniProt:P03951 data, Ki value: < 5 nM

So the reported Ki for O=C(O)c1ccc(NC(=O)C2c3cccc(N4CCC(N5CCOCC5)CC4)c3CCN2C(=O)/C=C/c2c(-n3cnnn3)ccc(Cl)c2F)cc1 (racemic) [Example 138] , on UniProt:P03951, turned out to be < 5 nM

Observed Ki, UniProt:P03951, O=C(O)c1ccc(NC(=O)C2c3cccc(N4CCC(F)CC4)c3CCN2C(=O)C=Cc2c(-n3cnnn3)ccc(Cl)c2F)cc1 (centres unmarked) [Example 270] : < 5 nM

Given the compound COC1CCN(c2cccc3c2CCN(C(=O)/C=C/c2c(-n4cnnn4)ccc(Cl)c2F)C3C(=O)Nc2ccc(C(=O)O)cc2)CC1 (racemic) [Example 150] and test system UniProt:P03951, the measured Ki is < 5 nM

Record CC(=O)c1ccc(Cl)c(F)c1C=CC(=O)N1CCc2c(cccc2N2CCC(N3CCCC3)CC2)C1C(=O)Nc1ccc(C(=O)OCc2ccccc2)cc1 (centres unmarked) [Example 171] ; system UniProt:P03951; Ki = 5 to 10 nM

Summary: O=C(O)c1ccc(NC(=O)C2c3cccc(N4CCC(N5CCCC5)CC4)c3CCN2C(=O)/C=C/c2c(F)ccc(F)c2F)cc1 (racemic) [Example 182] , UniProt:P03951, Ki = 5 to 10 nM

Tested system UniProt:P03951; Ki recorded for O=C(O)c1ccc(NC(=O)[C@@H]2c3cccc(N4CCC(C(=O)N5CCCC5)CC4)c3CCN2C(=O)/C=C/c2c(-n3cnnn3)ccc(Cl)c2F)cc1 [Example 133] was < 5 nM

----------
Target: purified human Factor XIa (Homo sapiens (Human))
Sequence (P03951 388-625): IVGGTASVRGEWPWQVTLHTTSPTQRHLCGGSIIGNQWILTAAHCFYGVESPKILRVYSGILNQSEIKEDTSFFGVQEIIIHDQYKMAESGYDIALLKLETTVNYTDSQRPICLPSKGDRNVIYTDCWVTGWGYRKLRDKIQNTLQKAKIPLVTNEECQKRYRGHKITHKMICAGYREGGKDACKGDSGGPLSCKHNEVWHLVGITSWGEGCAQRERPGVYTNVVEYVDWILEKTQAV
Sequence (P03951 19-387 partner): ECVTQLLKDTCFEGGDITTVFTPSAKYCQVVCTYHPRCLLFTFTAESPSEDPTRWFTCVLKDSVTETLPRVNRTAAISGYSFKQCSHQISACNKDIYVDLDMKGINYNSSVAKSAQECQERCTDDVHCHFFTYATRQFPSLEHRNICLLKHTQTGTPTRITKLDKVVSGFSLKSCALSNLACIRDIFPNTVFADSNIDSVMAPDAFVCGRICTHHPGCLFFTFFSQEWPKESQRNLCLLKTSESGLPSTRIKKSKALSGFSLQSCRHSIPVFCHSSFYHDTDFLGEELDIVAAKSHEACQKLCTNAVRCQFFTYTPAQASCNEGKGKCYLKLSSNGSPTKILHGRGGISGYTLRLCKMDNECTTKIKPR
Test: Factor XIa chromogenic substrate (S-2366) inhibition assay
Type: biochemical
Details: substrate S-2366, activity ranges, Table A
pKi: −log10 of the molar value. Where a name gives a salt, the structure may show the parent alone.
Measured pKi accompanies every entry in the list below.

Below: 2 compounds and their reported pKi.
compound | pKi
CC(=O)c1ccc(Cl)c(F)c1/C=C/C(=O)N1CCc2c(cccc2N2CCC(C(=O)N(C)C)CC2)[C@H]1C(=O)Nc1ccc(C(=O)O)cc1 | > 8.30
CC(=O)c1ccc(Cl)c(F)c1C=CC(=O)N1CCc2c(cccc2N2CCC3(CCN(C)C3=O)CC2)C1C(=O)Nc1ccc(C(=O)O)cc1 (stereo not drawn) [Example 221] | 8.00 to 8.30

Lab note: measured pKi of CC(C)(C)OC(=O)N1CCN(c2cccc3c2CCN(C(=O)/C=C/c2c(-n4cnnn4)ccc(Cl)c2F)C3C(=O)Nc2ccc3cnn(C(=O)OC(C)(C)C)c3c2)CC1 (stereo not drawn) was 8.00 to 8.30

Form field pKi, entry NC(=O)c1ccc(NC(=O)C2c3cccc(N4CCNCC4)c3CCN2C(=O)/C=C/c2cc(Cl)c(F)cc2-n2cnnn2)cc1 (stereo not drawn) [Example 66, bis-TFA Salt] : 8.00 to 8.30

The measured pKi associated with CCOC(=O)c1ccc(NC(=O)C2c3cccc(N4CCC(N5CCCC5)CC4)c3CCN2C(=O)/C=C/c2c(-n3cnnn3)ccc(Cl)c2F)cc1 (racemic) reads > 8.30

Lab note: measured pKi of O=C(O)c1ccc(NC(=O)C2c3cccc(N4CCNCC4)c3CCN2C(=O)/C=C/c2cc(Cl)c(F)cc2-n2cnnn2)cc1 (stereo not drawn) [Example 65, bis TFA Salt] was 8.00 to 8.30

# pKi (compound: O=C(O)c1ccc(NC(=O)C2c3cccc(N4CCC(N5CCCC5)CC4)c3CCN2C(=O)/C=C/c2cccc(Cl)c2Cl)cc1 (racemic) ) is 8.00 to 8.30

Entry O=C(NCCc1c[nH]cn1)c1ccc(NC(=O)C2c3cccc(N4CCNCC4)c3CCN2C(=O)/C=C/c2cc(Cl)c(F)cc2-n2cnnn2)cc1 (racemic) ; pKi = 6.30 to 7.00

Quick note, pKi for O=C(O)c1ccc(NC(=O)[C@@H]2c3cccc(N4CCC(C(=O)N5CCOCC5)CC4)c3CCN2C(=O)/C=C/c2c(-n3cnnn3)ccc(Cl)c2F)cc1 landed at > 8.30

Reported pKi for O=C(Nc1ccc2cnn(C(=O)OCc3ccccc3)c2c1)C1c2cccc(N3CCNCC3)c2CCN1C(=O)/C=C/c1c(-n2cnnn2)ccc(Cl)c1F (stereo not drawn) was 8.00 to 8.30

Input O=C(O)c1ccc(NC(=O)C2c3cccc(N4CCC5(CC4)OCCO5)c3CCN2C(=O)/C=C/c2c(-n3cnnn3)ccc(Cl)c2F)cc1F (racemic) . Output pKi: > 8.30

Entry under test: O=C(O)c1ccc(NC(=O)C2c3cccc(N4CCC(C(=O)N5CCOCC5)CC4)c3CCN2C(=O)/C=C/c2c(-n3cnnn3)ccc(Cl)c2F)cc1 (racemic) . Its pKi was > 8.30

Hey, just so you know, these numbers are from patent US10208021B2.
